Reference for the values: ChEMBL document CHEMBL1201862

- Test system: A498
- test.name: NCI tumour cell line growth inhibition, 48 h
Active and inactive are the calls of the source. Cut-off read from the data, not from the text of the source: active = GI50 up to about 1.1 µM and inactive = higher.
# GI50 values compiled below

Some entries whose results are on file:
CCCCCCCCc1cc2c(O)c(c1)Cc1cc(CCCCCCCC)cc(c1O)Cc1cc(CCCCCCCC)cc(c1O)Cc1cc(CCCCCCCC)cc(c1O)Cc1cc(CCCCCCCC)cc(c1O)Cc1cc(CCCCCCCC)cc(c1O)C2	> 100 µM (inactive)
C/C=C1\C(=O)O[C@H]2C/C(C)=C/CC/C(C)=C/CC[C@@]3(C)O[C@@H]3C[C@@H]12	> 100 µM (inactive)
O=C1CC(C(O)(C(F)(F)F)C(F)(F)Cl)CCC1C(O)(C(F)(F)F)C(F)(F)Cl (stereo not drawn)	6.58 µM (inactive)
COc1c(-c2cccs2)oc2c(CC(=O)O)cccc2c1=O	86.3 µM (inactive)
COc1ccccc1OCC(=N/NC(=O)c1ccncc1)/N=C/c1ccncc1	> 100 µM (inactive)
CCCCCC(/C=C/[C@@H]1[C@H]2CC(=O)O[C@H]2C[C@H]1N1CCOCC1)OC1CCCO1 (stereo partly drawn)	> 100 µM (inactive)

[ask] # return recorded GI50 for entry COC(=O)c1nc(C(=O)OC)c2c([nH]c3ccccc32)c1C(=O)OC
[reply] > 100 µM (inactive)

[ask] # return recorded GI50 for entry COC(=O)/C(=N\Nc1nc(S)nn1N)C(C#N)c1ccccc1 (stereo not drawn)
[reply] > 100 µM (inactive)

###

- Test system: U-251
- test.name: NCI tumour cell line growth inhibition, 48 h
Active and inactive are the calls of the source. Rule as the data show it: active = GI50 up to about 1.1 µM and inactive = higher.
In this exercise, the only acceptable responses are 1 (yes) (active), 0 (no) (inactive)

CN(C)CCNCCCNc1c2ccccc2nc2cccc([N+](=O)[O-])c12	1 (yes)
COc1ccc([C@@H]2ON(C)[C@H]3CN(C)C(=O)[C@@H]23)cc1	0 (no)
Cc1cc(O)nc(NN2C(Cl)C(=O)C2c2ccco2)n1 (configuration not stated)	0 (no)
COC(=O)N/N=C/c1oc(-c2ccccc2)c(-c2ccccc2)c1[N+](=O)[O-]	0 (no)
CC(C)(C)OC(=O)N1C/C=C\C(=O)C2(OCCO2)c2ccccc21	0 (no)
COc1cc(/C=C(\NC(=O)c2ccccc2)c2nc3c(O)nc(S)nc3[nH]2)cc(OC)c1OC	0 (no)

Consider the record given below.
[ask] Record request — test call for CCC1CCC2CCCC(C)N12 (configuration not stated)
[reply] 0 (no)

###

# GI50 values compiled below
- Tested on: Malme-3M
- test.name: NCI tumour cell line growth inhibition, 48 h
Active and inactive are the calls of the source. Cut-off read from the data, not from the text of the source: active = GI50 up to about 1.1 µM and inactive = higher.

Some entries whose results are on file:
COC(=O)C[C@@H]1C(C)(C)[C@@H]2O[C@@]34C[C@@H]2C(=O)[C@]1(C)[C@H]3CC[C@@]1(C)[C@H](c2ccoc2)OC(=O)C[C@]14O	> 100 µM (inactive)
CC1CC[C@@]2(OC1)OC1C[C@H]3[C@@H]4C/C(=N\N(C)C)[C@@]5(O)CC(O)CC[C@]5(C)[C@H]4CC[C@]3(C)C1[C@@H]2C (stereo partly drawn)	29.7 µM (inactive)
Cc1cc(C)c(-n2c(-c3ccc(Br)cc3)cs/c2=N\N=C2C=C(C(C)(C)C)C(=O)C(C(C)(C)C)=C2)c(C)c1	> 100 µM (inactive)
C=CC(OC(=O)C(C)C)c1ccc(OC(=O)C(C)C)cc1 (stereo not drawn)	7.57 µM (inactive)
CC(C)[Si](OC1=CCC[C@H]2NC(=O)[C@@H](Cc3ccc([N+](=O)[O-])cc3)[C@@]12C)(C(C)C)C(C)C	16.6 µM (inactive)
CCOC(=O)C(NC(=O)c1ccccc1)(N1CCOCC1)C(F)(F)F (stereo not drawn)	> 100 µM (inactive)
CCCN(CCC)C1=Nc2ccccc2-n2cnnc2C1	> 100 µM (inactive)

[ask] # return recorded GI50 for entry O=C(c1ccco1)N(C(=O)N1CCN(c2ccccc2)CC1)S(=O)(=O)c1ccccc1
[reply] 29 µM (inactive)
